assay: NCI Yeast Anticancer Drug Screen. Data for the cln2 rad14 strain (AID 165);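 note: 0% = growth equal to vehicle treated cultures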; conditions: S. cerevisiae cln2 rad14 strain, at 5.0 µM (retest, dose inferred, filed as 0.5), stronger effect = higher value
This is part of a sample that, as a whole, favours compounds with a hit. Of some 79,000 tested, about 15% had one in any assay.
Can you tell me growth inhibition for the items I'm about to list?
Give bare numbers, in %.

Examples with their reported growth inhibition follow.
Compound | Units Text | growth inhibition
O=C(O)C(O)C(O)C(O)C(O)c1nc2ccccc2s1 (stereo unspecified) | % | 1
C=C1C(=O)OC2CC1C(O)C/C(C)=C/CC/C(C)=C/C(O)CC2C (stereo unspecified) | % | 11
O=[N+]([O-])c1ccc(NCc2ccccc2)c([N+](=O)[O-])c1 | % | -10
COc1ccc2c(c1)CCC1=C2C=C[P+]1(C)C | % | 4
Nc1nc(N)c2c(ccc3c2ccn3Cc2cccc([N+](=O)[O-])c2)n1 | % | 38

Kindly give each listed record's growth inhibition.
1. CCCCCCCNc1ccc2c(cc1=O)C(NC(C)=O)CCc1cc(OC)c(OC)c(OC)c1-2 (stereo unspecified)
2. C/C(=C/c1ccccc1)C(=O)C1C(c2ccccc2)CC(O)C(C)C1c1ccccc1 (stereo unspecified)
3. CCOC(=S)SCc1nc2ccccc2[nH]1
4. COC1(OC)CNC(C(=O)O)C1 (stereo unspecified)
5. CCC(=O)Sc1ccccc1C(=O)Nc1ccc(Cl)cc1
6. Clc1ccc(N=Cc2c3ccccc3cc3ccccc23)c(Cl)c1

[7, -4, 10, -54, 23, 15]

---

assay: NCI Yeast Anticancer Drug Screen. Data for the mec2-1 strain (AID 157); conditions: S. cerevisiae mec2-1 strain, at 50.0 µM (retest, dose inferred, filed as 5.0), stronger effect = higher value
This is part of a sample that, as a whole, favours compounds with a hit. Of some 79,000 tested, about 15% had one in any assay.
Can you tell me growth inhibition for the items I'm about to list?
Numbers only, in %.

Examples with their reported growth inhibition follow.
Compound | growth inhibition (%)
N#CC1C(=O)SC2c3ccccc3C(=O)c3ccccc3C12 (stereo not given) | -4
CCN(CC)CCCNc1nccc2c(C)c3[nH]c4ccncc4c3cc12 | 33
Cn1cc(NC(=O)c2cc(NC(=O)CCCCCCCC(=O)Nc3cc(C(=O)Nc4cc(C(=O)NCCC(=N)N)n(C)c4)n(C)c3)cn2C)cc1C(=O)NCCC(=N)N | 98

Kindly give each listed record's growth inhibition.
1. O=C(c1ccccc1)c1ccccc1S(=O)(=O)Nc1ccccc1
2. O=[N+]([O-])c1ccc(-[n+]2ccc3ccccc3c2)c([N+](=O)[O-])c1
3. O=C(Nc1cccc(Br)c1)Oc1ccc(Cl)c2cccnc12
4. COCCCNC(=S)N/N=C/c1cc(Cl)cc(Cl)c1O
5. CC(=O)NC1=C(Oc2ccccc2)C(=O)c2ccccc2C1=O
6. c1ccc(CSc2nnc3c4ccccc4c4ccccc4c3n2)cc1

[69, 80, 99, 81, 100, -22]

"N=C(N)c1ccc2oc3ccc(C(=N)N)cc3c(=O)c2c1" yielded growth inhibition of 70

---

assay: NCI Yeast Anticancer Drug Screen. Data for the mlh1 rad18 strain (AID 175); details: S. cerevisiae mlh1 rad18 strain growth inhibition; at 50.0 µM (retest, dose inferred, filed as 5.0)
This is part of a sample that, as a whole, favours compounds with a hit. Of some 79,000 tested, about 15% had one in any assay. The source made the active and inactive calls. Cut-off read from the data, not from the text of the source: active = growth inhibition above about 70%; inactive = the rest.
Hi there, use one of these labels in your reply, thanks! True (active), False (inactive)

Compound | Group Label
CC(C)(Sc1cc(Cl)c(Cl)c(Cl)c1)C(=O)OCCN1CCOCC1 | True
CCCCC(CC)(CCC)CCN (stereo not drawn) | True
OCC(CO)C1c2cccc3ccc4cccc1c4c23 | False

I would be grateful if you could indicate the recorded call for "COc1ccc2nc3cc(Cl)ccc3c(Nc3ccc(O)c(CNCCO)c3)c2c1" .
False

I would be grateful if you could indicate the recorded call for "Nc1ccc2c(SCCSc3c4ccccc4nc4cc(N)ccc34)c3ccccc3nc2c1" .
False

I would be grateful if you could indicate the recorded call for "CCN1/C(=C\c2cc[n+](CC)c3ccccc23)C=Cc2ccccc21" .
True

I would be grateful if you could indicate the recorded call for "C/C(=N\NC(=S)N1CCN(Cc2ccccc2)CC1)c1ccccn1" .
True

I would be grateful if you could indicate the recorded call for "COC(=O)c1ncc(Cl)cc1Cl" .
False

I would be grateful if you could indicate the recorded call for CCC1CCC(CC)C1=O (stereo not drawn) .
False

I would be grateful if you could indicate the recorded call for "Cc1cc(/C=C/c2cccc[n+]2C)c(C)n1-c1ccccc1" .
True

I would be grateful if you could indicate the recorded call for "CN(C)c1c([N+](=O)[O-])cc(N2C(=O)C=CC2=O)cc1[N+](=O)[O-]" .
True

I would be grateful if you could indicate the recorded call for "CCCCCCC(=O)OCc1ccc(-c2ccccc2)cc1" .
True

I would be grateful if you could indicate the recorded call for "COCCCNC(=O)SC" .
False

I would be grateful if you could indicate the recorded call for "CN(C)c1ccc(C(O)(Cc2cccc(C#N)c2)c2ccc(N(C)C)cc2)cc1" .
False

I would be grateful if you could indicate the recorded call for "O=C1c2cccnc2-c2nccc3c2c1nc1cc(Br)ccc13" .
True

I would be grateful if you could indicate the recorded call for "CCCCCCN(CCCCCC)CCC(=O)c1ccc2cc(Br)c3ccccc3c2c1" .
True

I would be grateful if you could indicate the recorded call for C[C@]12CCC3[C@@H](CC[C@@H]4c5nonc5CC[C@]34C)C1CCC(=O)N2 (stereo partly drawn) .
False

I would be grateful if you could indicate the recorded call for "O=C1C(=O)N(C(=O)c2ccc(Cl)c(Cl)c2)c2ccc(Cl)cc21" .
False

Where these numbers come from: PubChem BioAssay (NCI)
